# system: CyclinE1/CDK2 (Homo sapiens)
# Construct: purchased Eurofins, discovery 14-475
# assay-summary: Fluorescence Polarization (FP) competitive binding assay, Cyclin E1/Cdk2;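 note: readings taken after two-hour equilibration at room temperature in HEPES buffer with NaCl, DTT, NP-40 and BSA, IC50 fitted from eight-concentration serial dilution series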
# run-parameters: 10 nM Cyclin E1/Cdk2, 2 nM FAM probe; average of 2-3 independent experiments; read-out: Cyclin E FP IC50
*1 amine or outer side, *2 acyl side, *3 side chain or, on linkers, in order; H or OH if unused. Where a SMILES comes first, the peptide text is derived from it. Bridges are numbered along the chain shown (N, C = ends). [ ]: non-standard residue; d: D form. The star is where a group is joined. X103 = CN1CCC(Oc2ccc(-c3ccc(Cl)cc3C[C@@H](C(=O)[*:2])N(C)[*:1])cc2)CC1; NMeAla(5-Cl-2-cPrO-3-pyridyl) = CN[C@@H](Cc1cc(Cl)cnc1OC1CC1)C(=O)O; NMehhhLys(Me) = CN([C@@H](CCCCCCCN(C)[*:3])C(=O)[*:2])[*:1]; Cyclobutanecarbonyl(1-CF3) = O=C(C1(C(F)(F)F)CCC1)*; cBuCO(3,3-F2-1-CF3) = O=C(C1(C(F)(F)F)CC(F)(F)C1)*; Pro(trans-4-F) = O=C(O)[C@@H]1C[C@@H](F)CN1; Gly(cPr) = N[C@H](C(=O)O)C1CC1
Below, each entry is listed with its recorded pIC50.
Entry type: numeric. Quantity: pIC50, the -log10 of concentration in molar units.

Please indicate pIC50 recorded for CC(C)C[C@@H]1NC(=O)[C@@H](N(C)C(=O)[C@@H](NC(=O)[C@@H]2C[C@@H](F)CN2C(=O)C2(C(F)(F)F)CCC2)C2CC2)CCCCCCCN(C)C(=O)[C@H](Cc2cc(Cl)cnc2OC2CC2)N(C)C1=O [Example 109] ({Cyclobutanecarbonyl(1-CF3)}-[Pro(trans-4-F)][Gly(cPr)][NMehhhLys(Me)]L[NMeAla(5-Cl-2-cPrO-3-pyridyl)]; lactam 3-C) 6.77

Please indicate pIC50 recorded for CC(C)C[C@@H]1NC(=O)[C@@H](N(C)C(=O)[C@@H](NC(=O)[C@@H]2C[C@@H](F)CN2C(=O)C2(C(F)(F)F)CC(F)(F)C2)C2CC2)CCCCCCCN(C)C(=O)[C@H](Cc2cc(Cl)ccc2-c2ccc(OC3CCN(C)CC3)cc2)N(C)C1=O [Example 371] ({cBuCO(3,3-F2-1-CF3)}-[Pro(trans-4-F)][Gly(cPr)][NMehhhLys(Me)]L[X103]; lactam 3-C) 6.04
